# Tested on: Fibroblast
# measurement-protocol: Multiplex assay against human fibroblast
# Assay type: toxicity, cell-based
# experimental-context: 12 h, 10 µM, compound concentration 10 uM, replicate 2
Entries and their measured Population Hoechst High Intensity Objects (%) follow.
readout: Population Hoechst High Intensity Objects (%)

compound=Cl.Cl.NC1(c2ccc(-c3nc4ccn5c(=O)[nH]nc5c4cc3-c3ccccc3)cc2)CCC1 recorded_value=69%
compound="Cc1nc(Cc2cccc(C(F)(F)F)c2)sc1-c1ccc(C(N)=O)nc1 [TP-024n]" recorded_value=4%
compound=Nc1ccc(C(=O)Nc2cccc(-c3nc(N4CCOCC4)c4oc5ncccc5c4n3)c2)cn1 recorded_value=19%
compound=Cl.Cl.Nc1ncnc2c1c(-c1cccc(OCc3ccccc3)c1)cn2[C@H]1C[C@@H](CN2CCC2)C1 recorded_value=8%
compound="CN(C)CCOc1ccc(-c2nc(-c3ccncc3)c(-c3ccc4c(c3)CC/C4=N\\O)[nH]2)cc1 [SB590885]" recorded_value=50%
compound="CCn1c(-c2nonc2N)nc2cnc(Oc3cccc(NC(=O)c4ccc(OCCN5CCOCC5)cc4)c3)cc21 [GSK-269962A]" recorded_value=7%

----------
# System: Fibroblast
# measurement-protocol: Multiplex assay against human fibroblast
# Format: toxicity, cell-based
# experimental-context: 24 h, 1 µM, compound concentration 1 uM, replicate 2
Rule: Population Mitotic Cells (%) below 70% gives true. Equal to or above 70% gives false.

compound="CC(C)Oc1ccc(C(=O)N[C@H](CNC(=O)CN(C)C)Cc2ccc(-c3cn4cccc([C@H](C)O)c4n3)cc2)cc1Cl [GSK-923295A]" answer_label=true
compound="CNC(=O)c1cc(Oc2ccc(NC(=O)Nc3cc(C(C)(C)C)nn3-c3ccc4ncccc4c3)c(F)c2)ccn1 [REBASTINIB]" answer_label=true
compound="CCOc1cc2ncc(C#N)c(Nc3ccc(OCc4cccc(F)c4)c(Cl)c3)c2cc1NC(=O)/C=C/CN(C)C [HKI-357]" answer_label=true
compound=Cl.Cl.NC1(c2ccc(-c3nc4ccn5c(=O)[nH]nc5c4cc3-c3ccccc3)cc2)CCC1 answer_label=true
compound="Cc1nc(Cc2cccc(C(F)(F)F)c2)sc1-c1ccc(C(N)=O)nc1 [TP-024n]" answer_label=true
compound=Cc1cn(-c2cc(NC(=O)c3ccc4c(c3)CN(c3cncnc3)C[C@@H]4C)cc(C(F)(F)F)c2)cn1 answer_label=true
compound="FC(F)c1nc2ccccc2n1-c1nc(N2CCOCC2)nc(N2CCOCC2)n1 [ZSTK-474]" answer_label=false
compound=Nc1nc2c(c(N3CCNCC3)n1)CCC1=C2[C@@H]2CCCC[C@@H]2O1 answer_label=false

----------
# Tested on: HEK-293T
# measurement-protocol: Multiplex assay against HEK293T;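 also: share of the cells with healthy nuclei that show this phenotype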
# Assay type: toxicity, cell-based
# experimental-context: human, 12 h, 10 µM, compound concentration 10 uM, replicate 1
readout: Population Tubulin-Different-Phenotype (%)

molecule=CCc1cc2c(cc1CC)CC(NC[C@H](O)c1ccc(O)c3[nH]c(=O)ccc13)C2 recorded_value=61
molecule=CC(C)(C)c1cnc(CSc2cnc(NC(=O)C3CCNCC3)s2)o1 recorded_value=27
molecule="CCC(=O)O[C@]1(C(=O)SCF)[C@H](C)C[C@H]2[C@@H]3C[C@H](F)C4=CC(=O)C=C[C@]4(C)[C@@]3(F)[C@@H](O)C[C@@]21C [FLUTICASONE PROPIONATE]" recorded_value=78
molecule="CN(C)C/C=C/C(=O)Nc1cc2c(Nc3ccc(F)c(Cl)c3)ncnc2cc1O[C@H]1CCOC1.O=C(O)/C=C\\C(=O)O.O=C(O)/C=C\\C(=O)O [AFATINIB DIMALEATE]" recorded_value=82
molecule=Cl.Cl.NC1(c2ccc(-c3nc4ccn5c(=O)[nH]nc5c4cc3-c3ccccc3)cc2)CCC1 recorded_value=43
molecule=CCOc1cc2ncc(C#N)c(Nc3ccc(OCc4cccc(F)c4)c(Cl)c3)c2cc1NC(=O)/C=C/CN(C)C recorded_value=61
molecule=COc1cc2c(Nc3ccc(NC(=O)c4ccccc4)cc3)ncnc2cc1OCCCN1CCOCC1 recorded_value=9
